Catalogue of switch fluorescence ratio readings, one per entry.
# System: ATP;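 note: ATP exposure 15 min at 22 °C before imaging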
# Assay Details: switch fluorescence ratio, 500 uM ATP over buffer (Cy3 cluster intensity, sum of 5 cycles each) (fold (ratio)); higher = stronger signal-on switching upon ATP binding; sequences stand for … in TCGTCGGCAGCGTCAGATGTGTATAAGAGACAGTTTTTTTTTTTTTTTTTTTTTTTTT…TC
# Setup Conditions: aptamer strand: ATP DNA aptamer (quencher-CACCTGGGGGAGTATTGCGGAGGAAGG + anchor), 100 nM annealed; ATP concentration: 500 uM

# Monomer Sequence, switch fluorescence ratio
rows = [
    ("AACTGCGGTC", 1.02),
    ("TGGGTAAAAA", 0.995),
    ("CGTAGACGAA", 0.974),
    ("CCGTTGCTTT", 1.35),
    ("AGGGGTGGAA", 0.975),
    ("AATCGTTTTT", 1.02),
    ("GTGTAAGAGA", 1.01),
    ("CTTTAATGTT", 0.988),
    ("ACTTATGATA", 1.02),
    ("CTCATAGACA", 1.03),
    ("CCGGTGCTCG", 1.04),
    ("TCGTGTGATG", 0.969),
]

----------
# System: ATP;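 note: ATP exposure 15 min at 22 °C before imaging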
# Assay Details: switch fluorescence ratio, 500 uM ATP over buffer (Cy3 cluster intensity, sum of 5 cycles each) (fold (ratio)); higher = stronger signal-on switching upon ATP binding; sequences stand for … in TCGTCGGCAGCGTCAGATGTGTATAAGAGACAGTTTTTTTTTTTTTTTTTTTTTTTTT…TC
# Setup Conditions: aptamer strand: ATP DNA aptamer (quencher-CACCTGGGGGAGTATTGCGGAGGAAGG + anchor), 100 nM annealed; ATP concentration: 500 uM
Please use Satisfied whenever switch fluorescence ratio is not below 1, and Not satisfied whenever it is.

# Monomer Sequence, Class Assignment
measured = [
    ("TTTTAGCTCT", "Not satisfied"),
    ("ATCCTTCTAA", "Satisfied"),
    ("CGTACCGGTC", "Satisfied"),
    ("TCCAGGGCTT", "Satisfied"),
]

----------
# Test system: ATP;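 note: ATP exposure 15 min at 22 °C before imaging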
# Assay Details: switch fluorescence ratio, 500 uM ATP over buffer (Cy3 cluster intensity, sum of 5 cycles each) (fold (ratio)); higher = stronger signal-on switching upon ATP binding; sequences stand for … in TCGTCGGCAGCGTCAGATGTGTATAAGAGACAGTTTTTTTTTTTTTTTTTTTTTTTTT…TC
# Setup Conditions: aptamer strand: ATP DNA aptamer (quencher-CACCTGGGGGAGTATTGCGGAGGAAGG + anchor), 100 nM annealed; ATP concentration: 500 uM
Consider the following sequences and their measured switch fluorescence ratio readings.
Outcome Measure: switch fluorescence ratio

# Monomer Sequence, Measurement Target, Outcome Measure, Numeric Readout
measured = [
    ("GTTCTTTGG", "ATP", "switch fluorescence ratio", 0.995),
    ("ATGAATTGTT", "ATP", "switch fluorescence ratio", 0.974),
    ("AGGAGTTATT", "ATP", "switch fluorescence ratio", 1),
    ("ATGAGATTTT", "ATP", "switch fluorescence ratio", 0.988),
    ("TGGTTTAATT", "ATP", "switch fluorescence ratio", 1.01),
    ("GTTTGAATTG", "ATP", "switch fluorescence ratio", 0.988),
    ("GAGTAAGAGG", "ATP", "switch fluorescence ratio", 0.989),
    ("TCGTTGGGGG", "ATP", "switch fluorescence ratio", 0.995),
    ("TAGGGAATGT", "ATP", "switch fluorescence ratio", 1),
    ("TGAGGGGGAG", "ATP", "switch fluorescence ratio", 1.01),
    ("GCACGCGGCT", "ATP", "switch fluorescence ratio", 1.02),
    ("TGCAACGAGG", "ATP", "switch fluorescence ratio", 0.998),
    ("AATGTTGTGG", "ATP", "switch fluorescence ratio", 0.985),
    ("GGCAACTTCT", "ATP", "switch fluorescence ratio", 1.02),
    ("AGTTTCAGGT", "ATP", "switch fluorescence ratio", 1.01),
    ("TTTTATCGGG", "ATP", "switch fluorescence ratio", 0.971),
    ("GGCGTACTTG", "ATP", "switch fluorescence ratio", 1.01),
    ("AATTTTTTGT", "ATP", "switch fluorescence ratio", 1.01),
    ("AAAAAAGAAT", "ATP", "switch fluorescence ratio", 0.994),
    ("AAAGTATGCT", "ATP", "switch fluorescence ratio", 0.99),
    ("ATAGTGTGTG", "ATP", "switch fluorescence ratio", 1),
    ("TTATTAATTT", "ATP", "switch fluorescence ratio", 1),
    ("TTGCTCCTTT", "ATP", "switch fluorescence ratio", 1.02),
    ("AGAGTAGTTA", "ATP", "switch fluorescence ratio", 0.974),
    ("AGCTGGTCGT", "ATP", "switch fluorescence ratio", 0.973),
    ("TTTAGCAGGG", "ATP", "switch fluorescence ratio", 1.01),
    ("CGCGTGGCGG", "ATP", "switch fluorescence ratio", 0.999),
    ("TGACGCGTTT", "ATP", "switch fluorescence ratio", 1.02),
    ("TTTTCGGTGA", "ATP", "switch fluorescence ratio", 0.971),
    ("ATAAGTGCTG", "ATP", "switch fluorescence ratio", 0.991),
    ("TTTTGGCCTG", "ATP", "switch fluorescence ratio", 1.02),
    ("GGTCTTTTGG", "ATP", "switch fluorescence ratio", 0.981),
    ("CGATTATTAT", "ATP", "switch fluorescence ratio", 0.975),
    ("AGAAGTTGCG", "ATP", "switch fluorescence ratio", 0.986),
    ("AAAGGGAAGT", "ATP", "switch fluorescence ratio", 0.983),
    ("CACCGGCTGG", "ATP", "switch fluorescence ratio", 0.986),
    ("TGCTAGTGGT", "ATP", "switch fluorescence ratio", 1.01),
    ("ATGAAATAAA", "ATP", "switch fluorescence ratio", 0.984),
    ("TGGGTAGGAG", "ATP", "switch fluorescence ratio", 0.987),
    ("AATCGGGTAG", "ATP", "switch fluorescence ratio", 1),
    ("AGGTTTATAT", "ATP", "switch fluorescence ratio", 0.999),
    ("CGTTGGAGCG", "ATP", "switch fluorescence ratio", 1),
    ("CATTGATGAA", "ATP", "switch fluorescence ratio", 0.988),
    ("AGGATATCAG", "ATP", "switch fluorescence ratio", 0.991),
    ("CAAAGGGGAT", "ATP", "switch fluorescence ratio", 0.995),
    ("ACATTGGCTA", "ATP", "switch fluorescence ratio", 1),
    ("TAATGTGGCC", "ATP", "switch fluorescence ratio", 1.01),
    ("GGAGGGGATT", "ATP", "switch fluorescence ratio", 0.982),
    ("GGTCGTTTTG", "ATP", "switch fluorescence ratio", 0.991),
    ("AGACAGGGCT", "ATP", "switch fluorescence ratio", 1.02),
    ("AGACGAAAGT", "ATP", "switch fluorescence ratio", 0.998),
    ("TTATCGTCGG", "ATP", "switch fluorescence ratio", 0.978),
    ("TTAAACAAGC", "ATP", "switch fluorescence ratio", 0.998),
    ("TTCGGAACGG", "ATP", "switch fluorescence ratio", 0.991),
    ("TTATGTTTAG", "ATP", "switch fluorescence ratio", 0.976),
    ("AAGCGGGACG", "ATP", "switch fluorescence ratio", 0.999),
    ("AGTTCATTT", "ATP", "switch fluorescence ratio", 0.999),
    ("GTTATTTAGG", "ATP", "switch fluorescence ratio", 0.997),
    ("GCAAGTTCAA", "ATP", "switch fluorescence ratio", 1.01),
]

----------
# Test system: ATP;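 note: ATP exposure 15 min at 22 °C before imaging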
# Assay Details: switch fluorescence ratio, 500 uM ATP over buffer (Cy3 cluster intensity, sum of 5 cycles each) (fold (ratio)); higher = stronger signal-on switching upon ATP binding; sequences stand for … in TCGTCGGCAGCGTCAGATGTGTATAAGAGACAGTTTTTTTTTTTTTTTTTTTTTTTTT…TC
# Setup Conditions: aptamer strand: ATP DNA aptamer (quencher-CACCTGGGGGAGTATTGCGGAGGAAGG + anchor), 100 nM annealed; ATP concentration: 500 uM
A collection of sequences and their measured switch fluorescence ratio
Outcome Measure: switch fluorescence ratio

# Monomer Sequence, Outcome Measure, Numeric Readout
rows = [
    ("TATACTTTAT", "switch fluorescence ratio", 1.02),
    ("AATAATGCGG", "switch fluorescence ratio", 0.997),
    ("ATTTAGTGGG", "switch fluorescence ratio", 0.993),
    ("CGGAGGGGCC", "switch fluorescence ratio", 1.02),
    ("CGATGTGTGT", "switch fluorescence ratio", 0.991),
    ("AGGGGTCCTT", "switch fluorescence ratio", 0.997),
    ("AATAATCGCC", "switch fluorescence ratio", 1),
    ("TTCGTTGGGT", "switch fluorescence ratio", 0.986),
    ("GTTTGTAAGT", "switch fluorescence ratio", 1.01),
    ("CAGTGCCTGT", "switch fluorescence ratio", 1.01),
]
